Here the recorded melting point is given for each entry.

Answered cases to consult:
* O=c1ncn(Cc2ccc(Cl)cc2)c2cc(-c3ccc(OCc4ccccn4)cc3)sc12 | 257 to 259 °C
* C=CCOc1ccccc1-c1ncc(C(N)=O)c(=O)[nH]1 | 202 to 204 °C

**Query** Fill in: melting point of CC(C)n1cc(C2CCC3(CC2)OCCO3)c2cc(C#N)ccc21 is ___
**Result** 114 to 116 °C

###

attribute measured: melting point

* CNC(=O)N(O)Cc1ccc(OCc2ccccc2)cc1 | 150 to 153 °C
* Cc1cc(C#N)cc(-c2ccc3c(c2)C(C)(C)OC(=S)N3)c1 | 230 to 231 °C
* CC(C)(C)c1cc(Cc2nc3cc(Cl)cc(Br)c3o2)cc(C(C)(C)C)c1O | 133 to 136 °C

**Query** Fill in: melting point of Cc1cc2c(c3occ(-c4ccc(C(C)C)cc4)c13)CCC2 is ___
**Result** 70 to 72 °C

**Query** Another compound to check: CSCc1cc(N)ccc1N1C(=O)c2ccc(Cl)cc2C1=O
**Result** 134 to 137 °C

**Query** Another compound to check: O=C(NO)C(CN1C(=O)CNC1=O)CS(=O)(=O)c1ccc(-c2ccc(Cl)cc2)cc1 (stereo not drawn)
**Result** 150 to 156 °C

**Query** Another compound to check: CC(C)CC(=O)c1cn(C)cc(-c2cccc(C(F)(F)F)c2)c1=O
**Result** 110 to 112 °C

**Query** Another compound to check: COc1ccc(C(=O)Nc2ccccc2)cc1Nc1cccc(C(F)(F)F)c1
**Result** 183 to 184 °C
